Can you tell me binding signal for the items I'm about to list?
Biological target: OsSMF1 (Oryza sativa, UniProt Q6ZLB0 1-436)
Sequence: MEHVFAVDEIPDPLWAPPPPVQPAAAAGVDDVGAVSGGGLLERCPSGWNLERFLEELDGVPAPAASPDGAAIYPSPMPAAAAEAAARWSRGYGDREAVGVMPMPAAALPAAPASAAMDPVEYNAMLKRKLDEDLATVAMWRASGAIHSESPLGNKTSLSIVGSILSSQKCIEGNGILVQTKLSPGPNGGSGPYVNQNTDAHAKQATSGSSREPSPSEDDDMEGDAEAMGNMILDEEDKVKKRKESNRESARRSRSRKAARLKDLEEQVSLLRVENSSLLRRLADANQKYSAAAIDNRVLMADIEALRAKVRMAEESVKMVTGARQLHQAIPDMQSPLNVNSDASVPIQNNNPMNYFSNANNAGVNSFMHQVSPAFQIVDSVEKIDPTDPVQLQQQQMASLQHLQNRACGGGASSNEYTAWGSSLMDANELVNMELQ
Assay: protein-binding microarray (RPBM); PBS, 2% BSA, 51.3 ng/ul salmon testes DNA, 50 uM zinc acetate, 200 nM TF, 25 C, 1 h; high values mean tight binding
Conditions: protein: recombinant; tags: N-terminal polyhistidine and DsRed monomer fusion (pET32a); chain copies: 2; label: CyDye5-dUTP incorporated in the synthesized complementary strand; 3' TTTTT single-stranded linker to array surface; dsDNA, one strand shown
Whole data set: some 39,000 sequences, median “fluorescence intensity (a.u.)” near 4,300, cut for the highest 2% near 39,000. The list comes from a sample in which the highest values are over-represented; it also holds close analogues and randomly drawn sequences.

Consider the reported binding signal for these sequences:
| Residue Sequence | Readout Label | Result |
| --- | --- | --- |
| GCCAGGTGGGCTGGCGCTGAGTGTCCCACGGTCAGCGCCACGGAGTCACCTAGTGCAG | binding signal | 4010 fluorescence intensity (a.u.) |
| AACGTGAACTAAACACATGTCGAAATGCAATCAAAATACCCGGAGTCACCTAGTGCAG | binding signal | 42000 fluorescence intensity (a.u.) |
| CAAATACTAAATGATTTCAAATGAAAACGTCATCAACAACCGGAGTCACCTAGTGCAG | binding signal | 3560 fluorescence intensity (a.u.) |
| CATAGTGCAGGGGAGAAGCCAGGGAAGAGGGAGGTGACGTCGGAGTCACCTAGTGCAG | binding signal | 3290 fluorescence intensity (a.u.) |

# input For the sequence shown here, `AATCAAACTTTCAATTTTAGCGTGAACTAAACACACCCTTCGGAGTCACCTAGTGCAG` , give the reported binding signal.
# output 3680 fluorescence intensity (a.u.)

* * *

Target: OsSMF1 (Oryza sativa, UniProt Q6ZLB0 1-436)
Sequence: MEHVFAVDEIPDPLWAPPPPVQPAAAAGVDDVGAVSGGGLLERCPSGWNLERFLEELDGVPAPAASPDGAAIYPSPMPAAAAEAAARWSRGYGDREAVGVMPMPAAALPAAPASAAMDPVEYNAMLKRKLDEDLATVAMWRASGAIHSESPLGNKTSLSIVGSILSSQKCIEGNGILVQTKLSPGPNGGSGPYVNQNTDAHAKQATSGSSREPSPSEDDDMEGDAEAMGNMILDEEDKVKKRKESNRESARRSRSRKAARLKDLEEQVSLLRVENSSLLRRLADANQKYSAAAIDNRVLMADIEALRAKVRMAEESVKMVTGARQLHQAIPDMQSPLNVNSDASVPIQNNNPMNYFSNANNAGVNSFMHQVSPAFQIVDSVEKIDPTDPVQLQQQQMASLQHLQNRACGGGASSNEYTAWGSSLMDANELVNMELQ
Experiment: protein-binding microarray (RPBM); PBS, 2% BSA, 51.3 ng/ul salmon testes DNA, 50 uM zinc acetate, 200 nM TF, 25 C, 1 h; high values mean tight binding
Conditions: protein: recombinant; tags: N-terminal polyhistidine and DsRed monomer fusion (pET32a); chain copies: 2; label: CyDye5-dUTP incorporated in the synthesized complementary strand; 3' TTTTT single-stranded linker to array surface; dsDNA, one strand shown
In all, about 39,000 sequences were measured (“fluorescence intensity (a.u.)”: median about 4,300, highest 2% from about 39,000 on). The sample holds the highest values, similar sequences and a random draw of the others, so the mix is not that of the screen.
Can you tell me binding signal for the items I'm about to list?

| Residue Sequence | Result |
| --- | --- |
| CCCACCTGTGACTCAGCGAGCCGACTGCCACGTCAGACAACGGAGTCACCTAGTGCAG | 34400 fluorescence intensity (a.u.) |

Please report binding signal for every entry that follows.
1. CACACAGCCGCCCTTGCCGACCGCCACCGCCGCAACCGCACGGAGTCACCTAGTGCAG
2. CCAAACCCCACGCACGCCGCGTCGCCGCCTCCTCCTCTCCCGGAGTCACCTAGTGCAG
3. TGGGAGAGGGTAGTAGGTGGGCCGAGGTACACACGTGGGGCGGAGTCACCTAGTGCAG
4. CATGAGGAGGATGCTGACGTCTCGAGGTGAAGGCCGCAATCGGAGTCACCTAGTGCAG
5. TCTCCCAGGCCACCATCGGCGTCCACATCCCGCCGTCCGCCGGAGTCACCTAGTGCAG
6. CGCTCATGAAGCTCCTTCCCTACGCGCGCTCGCCGAATCGCGGAGTCACCTAGTGCAG
7. AAGTTATACTTAAAGTATTATAAATAATAAAGTAAGTCACCGGAGTCACCTAGTGCAG
8. GCCTCCACCTCGCTGCTGCTCCGCCAGCTAGTAGCCGCCACGGAGTCACCTAGTGCAG

# output
1. 3300 fluorescence intensity (a.u.)
2. 3670 fluorescence intensity (a.u.)
3. 5560 fluorescence intensity (a.u.)
4. 4970 fluorescence intensity (a.u.)
5. 3510 fluorescence intensity (a.u.)
6. 44000 fluorescence intensity (a.u.)
7. 34100 fluorescence intensity (a.u.)
8. 3350 fluorescence intensity (a.u.)

* * *

Molecular target: OsSMF1 (Oryza sativa, UniProt Q6ZLB0 1-436)
Sequence: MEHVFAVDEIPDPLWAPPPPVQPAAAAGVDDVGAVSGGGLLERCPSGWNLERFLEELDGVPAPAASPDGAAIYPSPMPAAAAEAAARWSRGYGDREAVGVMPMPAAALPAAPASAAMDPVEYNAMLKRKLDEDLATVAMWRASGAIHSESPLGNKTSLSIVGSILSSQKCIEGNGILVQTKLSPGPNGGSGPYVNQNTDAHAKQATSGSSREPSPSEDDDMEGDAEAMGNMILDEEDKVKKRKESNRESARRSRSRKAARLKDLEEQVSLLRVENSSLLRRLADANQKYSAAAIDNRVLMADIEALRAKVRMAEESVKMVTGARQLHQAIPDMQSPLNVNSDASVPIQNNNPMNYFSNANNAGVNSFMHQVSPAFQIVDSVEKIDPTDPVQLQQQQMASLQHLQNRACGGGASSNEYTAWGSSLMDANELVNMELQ
Experiment: protein-binding microarray (RPBM); PBS, 2% BSA, 51.3 ng/ul salmon testes DNA, 50 uM zinc acetate, 200 nM TF, 25 C, 1 h; high values mean tight binding
Settings: protein: recombinant; tags: N-terminal polyhistidine and DsRed monomer fusion (pET32a); chain copies: 2; label: CyDye5-dUTP incorporated in the synthesized complementary strand; 3' TTTTT single-stranded linker to array surface; dsDNA, one strand shown
In all, about 39,000 sequences were measured (“fluorescence intensity (a.u.)”: median about 4,300, highest 2% from about 39,000 on). Many of the other results were omitted from the sample, so the highest values are more common in it than they were.
Can you tell me binding signal for the items I'm about to list?

Please report binding signal for every entry that follows.
1. ATAAATAGAATGCTGACTGGACTGCCACGCGTACGCCATGCGGAGTCACCTAGTGCAG
2. GGTGTGAGTGTGATGTTGCTCGTGTAATGATGCGTGTGCGCGGAGTCACCTAGTGCAG
3. CGCACACATGAGCTCATGATGTGAACGTGATGATGGTGCGCGGAGTCACCTAGTGCAG

# output
1: 22000 fluorescence intensity (a.u.); 2: 5000 fluorescence intensity (a.u.); 3: 48500 fluorescence intensity (a.u.)

Please report binding signal for every entry that follows.
1. CTTGCACAAGTACAGTACGTGTACATGCATGTATGCTACCCGGAGTCACCTAGTGCAG
2. CATCAGATGCGCCCATCGCTTGAAGGAGAGACGCCGAGACCGGAGTCACCTAGTGCAG

# output
1. 5700 fluorescence intensity (a.u.)
2. 27300 fluorescence intensity (a.u.)

* * *

Can you tell me binding signal for the items I'm about to list?
Molecular target: OsSMF1 (Oryza sativa, UniProt Q6ZLB0 1-436)
Sequence: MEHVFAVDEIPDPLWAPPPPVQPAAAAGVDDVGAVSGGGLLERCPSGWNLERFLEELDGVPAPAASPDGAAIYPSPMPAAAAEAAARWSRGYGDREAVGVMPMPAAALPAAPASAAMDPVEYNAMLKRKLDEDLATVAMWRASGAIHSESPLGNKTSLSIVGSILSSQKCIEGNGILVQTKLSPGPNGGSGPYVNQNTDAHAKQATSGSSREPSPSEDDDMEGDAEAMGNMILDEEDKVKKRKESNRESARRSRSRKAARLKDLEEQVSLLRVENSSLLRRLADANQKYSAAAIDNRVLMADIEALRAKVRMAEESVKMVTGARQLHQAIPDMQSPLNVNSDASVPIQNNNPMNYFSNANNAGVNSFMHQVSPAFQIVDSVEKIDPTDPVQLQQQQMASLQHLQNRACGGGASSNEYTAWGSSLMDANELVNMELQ
Test: protein-binding microarray (RPBM); PBS, 2% BSA, 51.3 ng/ul salmon testes DNA, 50 uM zinc acetate, 200 nM TF, 25 C, 1 h; high values mean tight binding
Details: protein: recombinant; tags: N-terminal polyhistidine and DsRed monomer fusion (pET32a); chain copies: 2; label: CyDye5-dUTP incorporated in the synthesized complementary strand; 3' TTTTT single-stranded linker to array surface; dsDNA, one strand shown
Over roughly 39,000 sequences, “fluorescence intensity (a.u.)” has its median near 4,300; the highest 2% begin near 39,000. Only a selection was taken, and the highest values are over-represented in it overall.

| Residue Sequence | binding signal |
| --- | --- |
| ACCACTGTTTGTGGAGTGTGTGCACACACCACCTCCGATGCGGAGTCACCTAGTGCAG | 3810 fluorescence intensity (a.u.) |
| CTTATCAGTCGTAGCTCAACCTATAAGAGGCCTAAATATACGGAGTCACCTAGTGCAG | 32800 fluorescence intensity (a.u.) |
| CATATAACAAGTGACTGGCACACAAACCCACAATGAAGTGCGGAGTCACCTAGTGCAG | 43500 fluorescence intensity (a.u.) |
| CCCCTCCGCCTCGTCCCCATCGGCCACTGCCACCACCGCCCGGAGTCACCTAGTGCAG | 3700 fluorescence intensity (a.u.) |
| TCCAGGGAGCCGCGGTGGCATATGTTGCTGACATGTTTTCCGGAGTCACCTAGTGCAG | 5340 fluorescence intensity (a.u.) |

Please report binding signal for every entry that follows.
1. GTGGCGCGCGCGCGCACGCACGCTGGGCGACACGCCACGCCGGAGTCACCTAGTGCAG
2. TTATAACACAAAACACATATGAAGCGCACTCTACCACGCACGGAGTCACCTAGTGCAG
3. ACATTTATTGCATCATTACATTCTGAAGTAATTTCAACATCGGAGTCACCTAGTGCAG

# output
1: 4530 fluorescence intensity (a.u.); 2: 32200 fluorescence intensity (a.u.); 3: 3470 fluorescence intensity (a.u.)

# input For the sequence shown here, `GCGCGCGCCACCGCACCCGCGACGCCGACGTGTTCATGACCGGAGTCACCTAGTGCAG` , give the reported binding signal.
# output 5890 fluorescence intensity (a.u.)

Just for reference, paper PMC7819943 is where these values come from.
